These measurements were taken from patent US11932673.

# TEST SYSTEM: trypsin
# EXPERIMENT NOTES: monoclonal phage TRF
Collected Tryspin binding signal (FU) values appear next to each entry.
Supply the numeric figure in FU, leaving out any unit text.

>  <BINDER>
KB_A09 (scFv, V domains shown) VH: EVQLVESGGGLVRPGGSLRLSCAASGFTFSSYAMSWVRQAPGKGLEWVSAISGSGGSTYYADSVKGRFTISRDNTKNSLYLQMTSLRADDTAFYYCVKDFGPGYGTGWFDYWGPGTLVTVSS VL: AVNWYQQLPGKAPKLLIYAAERCPRILMRCKQDSDCLAGCVCGPNGFCGTPSGVPDRFSGSIDTFSNSASLTISGLKTEDEADYYCQSYDSSHHWVFGGGTKLTVLG

>  <Tryspin binding signal (FU)>
57700

$$$$
>  <BINDER>
KB_A05 (scFv, V domains shown) VH: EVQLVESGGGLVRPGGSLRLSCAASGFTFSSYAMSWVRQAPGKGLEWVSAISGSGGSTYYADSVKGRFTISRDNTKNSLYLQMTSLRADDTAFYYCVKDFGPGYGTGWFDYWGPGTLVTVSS VL: AVNWYQQLPGKAPKLLIYAADKCPRILMRCKQDSDCLAGCVCGPNGFCGGGSGIPERFSGSKSGTSASLAISGLRSEDEADYYCATWDDNLNGVVFGGGTKLTVLG

>  <Tryspin binding signal (FU)>
121000

$$$$

Could you now consider this next binder?
Prompt: Consider the binder KB_C10 (scFv, V domains shown) VH: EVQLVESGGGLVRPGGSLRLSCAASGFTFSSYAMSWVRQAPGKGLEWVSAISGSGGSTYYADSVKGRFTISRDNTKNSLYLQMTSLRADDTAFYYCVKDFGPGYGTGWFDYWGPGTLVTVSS VL: AVNWYQQLPGKAPKLLIYAAGPCPRILMRCKQDSDCLAGCVCGPNGFCGADSGVSDRFSGSKSGTSASLAITGLQAEDEGDYYCAAWDDSLNGLVFGGGTKVTVLG and give its measured Tryspin binding signal (FU).
Completion: 119000
